Listing of recorded DC50 by entry.
# TARGET_OR_TEST_SYSTEM: HiBit-BRM fusion protein (Homo sapiens)
# Construct: expressed in transfected cells
# Sequence (P51531 whole entry, the tested form may be a part): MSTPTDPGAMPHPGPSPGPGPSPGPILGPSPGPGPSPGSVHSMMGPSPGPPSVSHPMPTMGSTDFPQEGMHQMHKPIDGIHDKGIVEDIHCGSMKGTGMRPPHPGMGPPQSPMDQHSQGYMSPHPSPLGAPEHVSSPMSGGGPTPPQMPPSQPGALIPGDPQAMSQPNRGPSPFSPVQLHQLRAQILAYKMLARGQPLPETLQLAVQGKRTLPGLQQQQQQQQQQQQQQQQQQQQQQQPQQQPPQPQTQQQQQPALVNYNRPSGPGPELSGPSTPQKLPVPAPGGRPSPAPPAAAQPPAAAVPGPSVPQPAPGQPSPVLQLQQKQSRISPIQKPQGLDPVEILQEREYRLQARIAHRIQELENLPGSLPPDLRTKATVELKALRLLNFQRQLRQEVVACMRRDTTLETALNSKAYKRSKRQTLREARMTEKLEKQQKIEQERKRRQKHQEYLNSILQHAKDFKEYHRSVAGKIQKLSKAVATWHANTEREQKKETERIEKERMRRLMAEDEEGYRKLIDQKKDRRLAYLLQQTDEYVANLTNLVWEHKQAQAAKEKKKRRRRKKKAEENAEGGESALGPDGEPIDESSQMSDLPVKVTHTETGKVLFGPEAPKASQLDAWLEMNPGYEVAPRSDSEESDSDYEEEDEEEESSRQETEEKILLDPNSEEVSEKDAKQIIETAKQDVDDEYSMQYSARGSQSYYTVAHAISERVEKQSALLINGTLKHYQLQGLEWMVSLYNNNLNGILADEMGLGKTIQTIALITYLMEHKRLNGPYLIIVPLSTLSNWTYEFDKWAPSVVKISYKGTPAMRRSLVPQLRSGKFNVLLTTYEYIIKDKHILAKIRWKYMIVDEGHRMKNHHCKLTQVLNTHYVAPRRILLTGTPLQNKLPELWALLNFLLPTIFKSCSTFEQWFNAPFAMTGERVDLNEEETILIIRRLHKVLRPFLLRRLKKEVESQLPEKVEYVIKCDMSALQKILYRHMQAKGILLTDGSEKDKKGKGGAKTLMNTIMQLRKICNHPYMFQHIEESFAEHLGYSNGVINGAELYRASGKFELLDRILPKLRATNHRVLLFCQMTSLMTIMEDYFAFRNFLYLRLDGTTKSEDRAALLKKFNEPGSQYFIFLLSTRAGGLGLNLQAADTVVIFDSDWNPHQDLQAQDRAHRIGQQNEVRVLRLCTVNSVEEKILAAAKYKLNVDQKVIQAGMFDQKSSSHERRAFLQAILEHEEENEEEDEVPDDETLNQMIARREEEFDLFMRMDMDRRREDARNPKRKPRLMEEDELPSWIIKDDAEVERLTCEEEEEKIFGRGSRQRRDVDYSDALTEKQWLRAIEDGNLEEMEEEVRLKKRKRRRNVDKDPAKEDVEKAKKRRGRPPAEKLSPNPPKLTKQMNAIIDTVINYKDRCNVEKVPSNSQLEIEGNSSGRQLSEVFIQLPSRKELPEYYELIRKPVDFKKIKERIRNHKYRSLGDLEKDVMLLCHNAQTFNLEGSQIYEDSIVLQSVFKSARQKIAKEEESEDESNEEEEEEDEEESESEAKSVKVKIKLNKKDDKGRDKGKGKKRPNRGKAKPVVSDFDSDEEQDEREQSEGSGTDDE
# ASSAY_NAME: HiBiT-BRM cell-based degradation assay (Nano-Glo HiBiT Lytic Detection, 24 h)
# EXPERIMENTAL_SETUP: stable HeLa cell line expressing HiBiT-BRM, read-out: BRM HiBit Degradation IC50

Worked set:
CPD_SMILES | TARGET_OR_TEST_SYSTEM | DC50
Cc1ncsc1-c1ccc([C@H](C)NC(=O)[C@@H]2C[C@@H](O)CN2C(=O)[C@@H](c2cc(-c3cnc(N4CC[C@@H](c5sc6nnc(-c7ccccc7O)cc6c5C)[C@H](C)C4)nc3)no2)C(C)C)cc1 | HiBit-BRM fusion protein (Homo sapiens) | > 0.01 µM
Cc1ncsc1-c1ccc([C@H](C)NC(=O)[C@@H]2C[C@@H](O)CN2C(=O)[C@@H](c2cc(-c3ccnc(N4CC[C@H](c5cc6nnc(-c7ccccc7O)cc6s5)C4)n3)no2)C(C)C)cc1 | HiBit-BRM fusion protein (Homo sapiens) | > 0.1 µM
COc1cc(-c2cc([C@H](C(=O)N3C[C@H](O)C[C@H]3C(=O)N[C@@H](C)c3ccc(-c4scnc4C)cc3)C(C)C)on2)cnc1N1CCC(c2sc3nnc(-c4ccccc4O)cc3c2C)CC1 | HiBit-BRM fusion protein (Homo sapiens) | < 0.01 µM
Cc1ncsc1-c1ccc([C@H](C)NC(=O)[C@@H]2C[C@@H](O)CN2C(=O)[C@@H](c2cc(-c3ccc(N4CCC(c5cc6cc(-c7ccccc7O)nnc6s5)CC4)nn3)no2)C(C)C)cc1 | HiBit-BRM fusion protein (Homo sapiens) | > 0.01 µM

Incoming: Consider the compound "Cc1ncsc1-c1ccc([C@H](C)NC(=O)[C@@H]2C[C@@H](O)CN2C(=O)[C@@H](c2cc(N3CC[C@@H](c4sc5nnc(-c6ccccc6O)cc5c4C)C3)no2)C(C)C)cc1" and give its measured DC50.
Outgoing: < 0.01 µM
